tested on: AncSZ; experiment: phosphorylation enrichment, bacterial display (enrichment ratio); higher = better substrate or ligand; peptides without Tyr show the background

| ORDERED_RESIDUES | phosphorylation enrichment |
| --- | --- |
| IGEGTYRQVFK [CDK13_Y716_G717R_YF] | 0.693 |
| HTDDGYMPMSP [IRS1_Y612] | 1.94 |
| RSSGGYEPRGC [FUS_Y239_R244C] | 0.439 |
| PSDPSYEDMRE [BMPR1A_Y467] | 2.49 |
| SEDSEYFKAFE [CASQ2_Y178_YF] | 1.46 |
| DDYDLYGGEKF [PTPN11_Y66_Y62D] | 1.51 |
| GLNKGYRMVVN [HINT1_Y94] | 0.531 |
| SRPHLYGTPSR [ADGRE2_Y670] | 0.609 |
| KVASVYEAPGF [NT5C_Y65] | 0.973 |
| FHLGKYLQEVL [KLB_Y910_Y906H_YF] | 1.58 |
| CTTLHYNFMCN [TP53_Y234_I232L_YF] | 0.718 |
| LKKKQYTSIHH [APP_Y728] | 0.631 |
| CEAMEYPESKQ [BTK_Y511_L512P] | 1.28 |
| RVGVDYEGRGC [PLOD1_Y675_G678R] | 1.01 |
| PKGTGYIKTEL [STAT1_Y701] | 0.973 |
| NVLPEYKLQAP [KCNH2_Y388_D383N] | 0.784 |
| LARDMYDKEYY [MET_Y1230] | 1.83 |
| LTKQEYDEAGP [ACTA1_Y364_I359L] | 2.03 |
| PYSNSYENSLI [EPOR_Y489_P488S] | 1.32 |
| VHFLVYHHHHH [CACNA1H_Y519_H516Y_YF] | 0.88 |
| FEDALYTVLHR [UNC13D_Y61_YF] | 2.96 |
| WFQTKYEELQV [KRT6B_Y360_I365V_YF] | 0.915 |
| EFLQKYKGFKI [SYNE1_Y6953_YF] | 0.773 |
| SLGKGYSDGGC [MC4R_Y35] | 0.636 |
| MTEEQYIKMNR [ARFGEF2_Y797_K794E] | 0.941 |
| LERYIYNREEL [HLA-DPB1_Y59_F64L] | 0.713 |
| IPTPAYQSLPA [PDCD6IP_Y727_S730L] | 0.652 |
| VTQEQYELYCE [CBL_Y368] | 1.75 |
| FNSLPYQVPTS [CALCOCO2_Y358] | 0.942 |
| ISNATYKEIGL [FLT1_Y199] | 0.462 |
| EWRSPYGLTPR [GRIN3B_Y601] | 0.569 |
| FGMSTYITRED [FNDC3B_Y180_YF] | 0.961 |
| PGPPGYCDSSQ [COL12A1_Y3043] | 1.03 |
| CDLTDYLMKIL [ACTA1_Y190_R185C] | 1.39 |
| VHNLDYFKKTT [FGFR3_Y647_YF] | 0.806 |
| ENELTYFCCKK [CD59_Y86_YF] | 1.32 |
| NTQRPHYKGGG [TYROBP_Y111_Y111H] | 0.428 |
| ASGKFYAMKIL [AKT3_Y174_YF] | 0.858 |
| RSSNTYTLTDV [ALCAM_Y298] | 0.766 |
| LGNFNYEQRGA [API5_Y497] | 0.761 |
| RYLKDYGEFEV [GINS1_Y156_C152Y] | 1.75 |
| IKETHYMVDKC | 0.8 |
| QFNMQYSSSAA [ERBB2IP_Y981_I979M_YF] | 0.937 |
| QPSPSYDSSGG [TCF12_Y70_R74G] | 0.668 |
| IDPYTYTPFGS [CYP3A4_Y432_I431T] | 1.3 |
| AGIVVYNIIGW [MYH7_Y588_D587V] | 1.14 |
| ADIETYLLEKS [MYH7_Y266] | 1.04 |
| EDDIIYTQDFM [STK11_Y362_T367M] | 1.49 |

====

biological target: c-Src SH2; assay: SH2 binding enrichment of the phosphorylated peptide, bacterial display (enrichment ratio); higher = better substrate or ligand; peptides without Tyr show the background;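 also: peptide library displayed on the E. coli surface as eCPX fusions, selected cells deep-sequenced, score is each peptide's frequency after selection divided by its frequency in the input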

| ORDERED_RESIDUES | SH2 binding enrichment |
| --- | --- |
| ARLEYYENEKK [IRS1_Y47] | 9.04 |
| MFRVQYNSSVD [LRFN1_Y458_Q455R_YF] | 0.572 |
| RTLIRYANLSN [BEST1_Y131_G135S] | 1.59 |
| HLQQSYLPRGT [TEX45_Y396] | 0.3 |
| NGSKAYAYVHF [PABPC5_Y147_G146A] | 6.01 |
| IPTPAYQSLPA [PDCD6IP_Y727_S730L] | 1.18 |
| MFFSTYDRDND [FGB_Y408] | 0.778 |
| EWRSPYGLTPR [GRIN3B_Y601] | 0.645 |
| FKEVVYQAMEE [TACC3_Y684_E680K] | 0.918 |
| RKGGSYSQAAS [HLA-A_Y344_T345S] | 0.542 |
| FETNVYVDKNL [PTCHD3_Y688_K685T] | 0.693 |
| YSKTQYNQVPR [CXADR_Y318_S323R] | 0.589 |
| PRQRRYVYYYS [PTEN_Y174_S170R] | 0.413 |
| ERSMSYSDESR [SMG1_Y143] | 0.715 |
| QTPVLYAMLYH [MPZ_Y220_D224Y] | 0.44 |
| HKANEYYPVVI [ADAMTS18_Y764_L769I] | 0.587 |
| DCAAIYGNEPE [AKR1A1_Y50] | 0.72 |
| RIAFQYGVTDL [MYBPC3_Y340] | 0.535 |
| MSRDVYSIDFF [NTRK2_Y702_T704I_YF] | 0.656 |
| GRTPLYMDRQG [AGXT_Y194_G190R] | 0.542 |
| ASMAKYFASEI [ACADSB_Y372_YF] | 0.497 |

====

test system: AncSZ; assay: phosphorylation enrichment, bacterial display (enrichment ratio); higher = better substrate or ligand; peptides without Tyr show the background
MEASUREMENT_LABEL: phosphorylation enrichment

| ORDERED_RESIDUES | OBSERVED_MEASUREMENT |
| --- | --- |
| AELVPYFMEHH [PTPN11_Y80_Q79P_YF] | 0.913 |
| SAAAIYMVRHP [PMP22_Y117_T118M] | 0.756 |
| NPQKSCFIRLY [WAS_Y83_Y83C] | 1.02 |
| EFNLMYDGAKE [IRF6_Y97_T100A] | 1.35 |
| KLSHLYQDHMQ [WNT5A_Y86_C83S] | 0.794 |

====

This section presents sequences with their documented phosphorylation enrichment values.
target: FGFR1 (UniProt P11362); experiment: phosphorylation enrichment, bacterial display (enrichment ratio); higher = better substrate or ligand; peptides without Tyr show the background
Sequence (P11362 whole entry, looked up): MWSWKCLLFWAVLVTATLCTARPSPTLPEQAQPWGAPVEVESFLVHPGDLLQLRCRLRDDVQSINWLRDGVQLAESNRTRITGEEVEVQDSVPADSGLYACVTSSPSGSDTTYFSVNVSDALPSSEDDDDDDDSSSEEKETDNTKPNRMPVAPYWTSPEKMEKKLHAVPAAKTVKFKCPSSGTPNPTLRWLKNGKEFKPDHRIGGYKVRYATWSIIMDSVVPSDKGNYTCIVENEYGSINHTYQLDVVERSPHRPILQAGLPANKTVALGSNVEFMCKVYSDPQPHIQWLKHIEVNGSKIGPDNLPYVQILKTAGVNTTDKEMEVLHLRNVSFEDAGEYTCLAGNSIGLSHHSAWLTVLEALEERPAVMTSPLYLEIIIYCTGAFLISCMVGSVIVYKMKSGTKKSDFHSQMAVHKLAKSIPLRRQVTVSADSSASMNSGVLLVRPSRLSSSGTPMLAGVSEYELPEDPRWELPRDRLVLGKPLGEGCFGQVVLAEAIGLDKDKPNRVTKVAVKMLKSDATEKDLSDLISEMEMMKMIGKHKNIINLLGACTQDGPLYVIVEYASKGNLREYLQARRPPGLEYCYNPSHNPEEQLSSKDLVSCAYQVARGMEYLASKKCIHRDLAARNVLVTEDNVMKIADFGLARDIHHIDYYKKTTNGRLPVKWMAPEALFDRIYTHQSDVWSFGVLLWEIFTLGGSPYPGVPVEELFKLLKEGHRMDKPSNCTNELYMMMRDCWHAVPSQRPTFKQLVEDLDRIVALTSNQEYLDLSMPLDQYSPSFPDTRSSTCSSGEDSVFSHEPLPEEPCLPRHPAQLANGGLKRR

| ORDERED_RESIDUES | phosphorylation enrichment |
| --- | --- |
| QTPVLYAMLYH [MPZ_Y220_D224Y] | 5.59 |
| PAQAAYQKVVA [HBB_Y131_V127A] | 0.544 |
| LLQAEYWHDPI [PPT1_Y185_V181L] | 4.99 |
| TWNPKYTLRSH [STRN3_Y474] | 0.433 |
| QTSTDYDIRFY [CSNK2A1_Y131_L128S] | 1.08 |
| LFEDCYLLGTS [ASS1_Y87_R86C_YF] | 0.895 |
| TVQVAYFTVMM [SPATA17_Y83_M86V_YF] | 0.729 |
| QSPQLYKQLCI [DARS1_Y253_M256L] | 0.653 |
| SYCYRYRCAAR [SUMF1_Y344] | 0.538 |
| FEEVVYQAMEE [TACC3_Y684] | 0.621 |
| SVTCTYSPARN [TP53_Y126_L130R] | 0.53 |
| KQELVYPNKKL [OPTN_Y356_T357P] | 0.356 |
| ATDLAYFLVCK [ASL_Y375_R379C_YF] | 1.16 |
| QRIHNYFEHRF [HCN4_Y554_D553N_YF] | 0.719 |
| LRSKQYLRNPP [SHC1_Y315_F312S] | 0.277 |
| EAIAKYDLKAT [GRB2_Y7_F9L] | 0.466 |
| DLQDEYDFKCK [STAT1_Y170] | 0.668 |
| PLGPLYASSNT [INSR_Y992_P997T] | 0.633 |
| SISFDYCRVPM [BST2_Y8_T4I_YF] | 1.43 |
